full-length human His-tagged BTK (Homo sapiens (Human), UniProt Q06187): reported IC50 for various molecules.
Sequence (Q06187 whole entry): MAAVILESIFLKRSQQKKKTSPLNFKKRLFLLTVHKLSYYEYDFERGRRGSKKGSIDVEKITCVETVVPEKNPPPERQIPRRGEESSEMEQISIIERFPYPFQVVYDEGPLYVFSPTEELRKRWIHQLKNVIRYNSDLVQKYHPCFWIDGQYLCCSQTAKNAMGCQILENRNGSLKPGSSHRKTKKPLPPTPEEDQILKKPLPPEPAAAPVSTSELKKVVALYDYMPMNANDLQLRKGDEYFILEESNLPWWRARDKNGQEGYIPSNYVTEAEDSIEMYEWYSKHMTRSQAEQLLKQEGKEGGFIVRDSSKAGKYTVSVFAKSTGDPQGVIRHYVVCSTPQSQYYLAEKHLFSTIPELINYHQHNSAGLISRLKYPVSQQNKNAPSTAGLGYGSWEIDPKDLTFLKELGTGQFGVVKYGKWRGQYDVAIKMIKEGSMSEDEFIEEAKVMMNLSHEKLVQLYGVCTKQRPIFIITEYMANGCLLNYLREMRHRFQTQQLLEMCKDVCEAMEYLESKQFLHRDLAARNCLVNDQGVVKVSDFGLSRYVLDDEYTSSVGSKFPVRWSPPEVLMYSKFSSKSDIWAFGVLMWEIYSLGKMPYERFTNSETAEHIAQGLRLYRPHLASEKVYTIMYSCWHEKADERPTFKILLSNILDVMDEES
Measurement Type: IC50 (nM)

CC#CC(=O)N1CCC2(CC1)CC(c1nc(-c3ccc(Oc4ccccc4)cc3)c(C(N)=O)s1)C2 ... 300

(P) C=CC(=O)NCCc1nc(-c2ccc(Oc3ccccc3)cc2)c(C(N)=O)s1
(Q) C=CC(=O)N1CCC[C@@H](n2cc(C(N)=O)c(-c3ccc(NS(=O)(=O)c4cccc(Cl)c4Cl)cc3)n2)C1
Lookup: Please indicate which has the smaller reported IC50: P , or Q . // return label of chosen record
Found: P

Cited source: patent US10138229B2
